target: Lacticaseibacillus casei; assay: Inhibition of dTMP synthetase in the absence of CH2-H4 folate Lactobacillus casei
readout.type: Ki (µM)

I: O=c1[nH]c(=O)n([C@@H]2O[C@H](COP(=O)(O)O)[C@@H](O)[C@@H]2F)cc1F
II: O=c1ccn([C@H]2C[C@H](O)[C@@H](COP(=O)(O)O)O2)c(=O)[nH]1 [DEOXYURIDINE MONOPHOSPHATE]
III: O=c1[nH]c(=O)n([C@H]2C[C@H](O)[C@@H](COP(=O)(O)O)O2)cc1Cl
[Q] Descending by Ki please, for everything listed above. Lab note: final answer is the ordered label list.
[A] I, II, III

====

tested on: S49; experiment: The growth inhibition of S-49 mouse lymphoma cells; type: functional, cell-based
readout.type: EC50 (µM)
Dear colleague, please return just the value in µM, with no unit written.

[Q] Param readout= EC50; system= S49; entry= `O=c1[nH]c(=O)n([C@H]2O[C@@H](CO)[C@H](O)[C@H]2F)cc1F` ; returns value.
[A] 3.3
